Each entry below carries its recorded log10 Solubility.
experiment description: Solubility in pH 7.2 buffer
Assay type: physicochemical
Reminder: these figures are log10 of reported Solubility, in µM before transformation.

Sample `CC(=O)N(C)[C@@H](CC(C)(C)C)C(=O)N[C@H]1CCCCC/C=C\[C@@H]2C[C@@]2(C(=O)NS(=O)(=O)C2(C)CC2)NC(=O)[C@@H]2C[C@@H](Oc3nc4cc(F)ccc4c4ccccc34)CN2C1=O` — what was its log10 Solubility?
0.34

Find the recorded log10 Solubility belonging to `Cc1cc(C(=O)N[C@H]2CCCCC/C=C\[C@@H]3C[C@@]3(C(=O)NS(=O)(=O)C3CC3)NC(=O)[C@@H]3C[C@@H](Oc4nc5cc(F)ccc5nc4C(F)(F)F)CN3C2=O)no1` and report it.
2.19

What log10 Solubility value was documented for this compound, `Cc1cc(C(=O)N[C@H]2CCCCC/C=C\[C@@H]3C[C@@]3(C(=O)NS(=O)(=O)C3(C)CC3)NC(=O)[C@@H]3C[C@@H](Oc4nc5ccccc5c5ccc(F)cc45)CN3C2=O)no1` ?
0.28

Reported log10 Solubility for `Cc1cc(C(=O)N[C@H]2CCCCC/C=C\[C@@H]3C[C@@]3(C(=O)NS(=O)(=O)C3CC3)NC(=O)[C@@H]3C[C@@H](Oc4nc5ccccc5nc4C(F)(F)F)CN3C2=O)no1` : what is it?
2.18

What value of log10 Solubility has been recorded for this entry: `Cc1cc(C(=O)N[C@H]2CCCCC/C=C\[C@@H]3C[C@@]3(C(=O)NS(=O)(=O)C3(C)CC3)NC(=O)[C@@H]3C[C@@H](Oc4nc5cc(F)ccc5nc4C(F)(F)F)CN3C2=O)no1`
1.31

Origin of measurements: ChEMBL document CHEMBL4219043
